These entries and their values trace back to the supplement of paper PMC8728848.

- Target Entity: GlcNAc(b1-3)Gal(b1-4)GlcNAc(b1-2)[GlcNAc(b1-3)Gal(b1-4)GlcNAc(b1-6)]Man(a1-6)[GlcNAc(b1-3)Gal(b1-4)GlcNAc(b1-2)Man(a1-3)]Man(b1-4)GlcNAc(b1-4)GlcNAc
- Test Summary: glycan array binding signal (z-score within array); higher = stronger binding
- Condition Summary: glycan notation: IUPAC condensed, linker removed
The entries come from a sample that favours the strongest signals as a whole.
Quick reference for glycan array binding signal (z-score) among some binders
Form rule: numeric answer, no unit written next to it.

>>> numeric_result("EUL D1A first (Oryza sativa) (protein) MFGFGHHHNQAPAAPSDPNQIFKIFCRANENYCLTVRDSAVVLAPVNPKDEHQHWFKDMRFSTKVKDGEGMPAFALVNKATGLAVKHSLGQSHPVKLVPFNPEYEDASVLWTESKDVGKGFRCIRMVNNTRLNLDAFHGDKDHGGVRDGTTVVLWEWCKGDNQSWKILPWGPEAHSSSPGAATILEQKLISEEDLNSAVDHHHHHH")
1.95

Proceeding to the next binder to report its glycan array binding signal (z-score).
So, Erv46-EDTA (Saccharomyces cerevisiae), P39727 (protein) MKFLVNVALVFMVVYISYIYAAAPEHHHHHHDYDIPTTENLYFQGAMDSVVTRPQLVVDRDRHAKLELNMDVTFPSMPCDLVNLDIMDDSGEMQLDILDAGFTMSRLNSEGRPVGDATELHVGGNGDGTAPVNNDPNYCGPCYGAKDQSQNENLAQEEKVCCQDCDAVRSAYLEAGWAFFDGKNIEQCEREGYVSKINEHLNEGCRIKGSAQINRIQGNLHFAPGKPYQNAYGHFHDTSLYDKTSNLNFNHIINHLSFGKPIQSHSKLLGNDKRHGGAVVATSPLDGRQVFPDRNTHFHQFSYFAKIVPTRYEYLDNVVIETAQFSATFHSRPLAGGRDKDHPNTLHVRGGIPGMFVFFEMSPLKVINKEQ ? Its glycan array binding signal (z-score) was 2.9
